# System: dd, male mice
# assay: Acute toxicity test (mortality 7 days after administration)
# Assay type: in vivo
# measurement_parameters: mortality at 7 days, minimum lethal dosage
In this section, each of the compounds is paired with its reported Acute Toxicity (MLD) p.o..

Solved entries:
>  <compound>
CCNc1ccccc1C1c2ccccc2C(=O)N1CCN(CC)CC (stereo not drawn) [Compound 9]

>  <tgt>
dd, male mice

>  <result>
200 mg/kg

$$$$
>  <compound>
CCN(CC)CCCN1C(=O)c2ccccc2C1c1ccccc1N (stereo not drawn) [Compound 3]

>  <tgt>
dd, male mice

>  <result>
100 mg/kg

$$$$
>  <compound>
CCN(CC)CCN1C(=O)c2ccccc2C1c1c(C)ccc(C)c1N (stereo not drawn) [Compound 17]

>  <tgt>
dd, male mice

>  <result>
300 mg/kg

$$$$
>  <compound>
CCN(CC)CCCCN1C(=O)c2ccccc2C1c1ccccc1N (stereo not drawn) [Compound 4]

>  <tgt>
dd, male mice

>  <result>
200 mg/kg

$$$$
>  <compound>
CCN(CC)CCN1C(=O)c2ccccc2C1c1cccc(C(C)C)c1N (stereo not drawn) [Compound 33]

>  <tgt>
dd, male mice

>  <result>
100 mg/kg

$$$$
>  <compound>
CCN(CC)CCN1C(=O)c2ccccc2C1c1ccccc1N (stereo not drawn) [Compound 1]

>  <tgt>
dd, male mice

>  <result>
> 300 mg/kg

$$$$
>  <compound>
CCN(CC)CCN1C(=O)c2ccccc2C1c1cc(Cl)ccc1N (stereo not drawn) [Compound 11]

>  <tgt>
dd, male mice

>  <result>
> 300 mg/kg

$$$$
>  <compound>
CC(C)NCCN1C(=O)c2ccccc2C1c1cc(C#N)ccc1N (stereo not drawn) [Compound 36]

>  <tgt>
dd, male mice

>  <result>
> 300 mg/kg

$$$$

Tell us which Acute Toxicity (MLD) p.o. value is on record for CN(C)CCCN1C(=O)c2ccccc2C1c1ccccc1N (stereo not drawn) [Compound 2]
> 300 mg/kg

Look up and state reported Acute Toxicity (MLD) p.o. for CCN(CC)CCN1C(=O)c2ccccc2C1c1cc(C)cc(C)c1N (stereo not drawn) [Compound 26]
200 mg/kg

Give the reported value of Acute Toxicity (MLD) p.o. for this record: CCN(CC)CCN1C(=O)c2ccccc2C1c1cc(F)ccc1N (stereo not drawn) [Compound 32]
300 mg/kg

Identify Acute Toxicity (MLD) p.o. associated with the compound CCN(CC)CCN1C(=O)c2ccccc2C1c1ccccc1NC (stereo not drawn) [Compound 7]
50 mg/kg

----------
minimal effective dose reference
# System: coronary artery ligation-induced arrhythmia in dog
# assay: Dog coronary artery ligation-induced arrhythmia test
# Type: in vivo, dogs
# measurement_parameters: Canis lupus familiaris, intravenous, 16 h after ligation, effective if 50% or more of total pulses restored to sinus rhythm, dose effective in 50% or more cases, read-out: Antiarrhythmic Activity B: coronary artery ligation induced arrhythmia in dog (MED)
# unit: mg/kg | format: bare number

>  <molecule>
CCN(CC)CCCN1C(=O)c2ccccc2C1c1ccccc1N (stereo not shown)

>  <measured_number>
2.5

$$$$
>  <molecule>
CCN(CC)CCN1C(=O)c2ccccc2C1c1cc(Cl)ccc1N (stereo not shown)

>  <measured_number>
5

$$$$
>  <molecule>
CCN(CC)CCN1C(=O)c2ccccc2C1c1ccc(N(C)C)cc1 (stereo not shown)

>  <measured_number>
2.5

$$$$
>  <molecule>
CCNCCN1C(=O)c2ccccc2C1c1cc(C#N)ccc1N (stereo not shown)

>  <measured_number>
5

$$$$
>  <molecule>
CC(C)NCCN1C(=O)c2ccccc2C1c1ccccc1N (stereo not shown)

>  <measured_number>
2.5

$$$$
>  <molecule>
CCCCN(CCCC)CCCN1C(=O)c2ccccc2C1c1ccccc1N (stereo not shown)

>  <measured_number>
1.25

$$$$

Look up and report measured minimal effective dose (coronary artery ligation-induced arrhythmia in dog) for the following molecule: CCN(CC)CCN1C(=O)c2ccccc2C1c1ccccc1N(C)C (stereo not shown)
2.5

Fill in: minimal effective dose on coronary artery ligation-induced arrhythmia in dog, entry CN(C)CCCN1C(=O)c2ccccc2C1c1ccccc1N (stereo not shown)
5
